Kindly supply the reported Inhibition values for the records listed here.
Test system: Plasmodium falciparum
Experiment: GSK_TCMDC: Inhibition of Plasmodium falciparum 3D7 in whole red blood cells, using parasite LDH activity as an index of growth. Test compounds present at 2uM
Type: functional
Field: numeric (%). Do not append units.

For reference, reported Inhibition for COc1ccc(-c2cc(C(F)(F)F)n3ncc(C(=O)Nc4cc(C)ccc4O)c3n2)cc1OC stands at 100

For reference, reported Inhibition for COc1cccc(Nc2nc(C)cc(Nc3cccc(C#N)c3)n2)c1 stands at 100

For reference, reported Inhibition for O=C(NCCc1ccc(Cl)c(Cl)c1)[C@@H]1CCCN1C(=O)c1ccc(O)c(-c2ccc(Cl)c(Cl)c2)c1 stands at 99

For reference, reported Inhibition for C#CCCOc1ccc2ccccc2c1CNCCCCCCNCc1c(OCCC#C)ccc2ccccc12 stands at 100

For reference, reported Inhibition for Cc1cc(N(C)CCCN2CCCCC2)nc(Nc2ccc(Cl)cc2)n1.Cl stands at 100
